Assay: Cmax in fasted Sprague-Dawley rat at 20 mg/kg, po by LC-MS/MS analysis
Format: ADME, organism-based
Settings: in vivo
measurement_label: Cmax (ng/mL)
Provide the reading as a plain figure in ng/mL.

Per the record, CC(=O)OC[C@@]1(F)O[C@@H](n2ccc(=O)n(COC(=O)c3cccnc3)c2=O)[C@H](OC(C)=O)[C@@H]1OC(C)=O has Cmax of 3120

---

Experiment: AUC (0 to t) in fasted Sprague-Dawley rat at 24 mg/kg, po by LC-MS/MS analysis
Format: ADME, organism-based
Details: in vivo
Each entry below carries its recorded AUC(0-t).
Could you give me the number in ng·h/mL? Just the number is fine.

Documented AUC(0-t) of CC(C)C(=O)OC[C@@]1(F)O[C@@H](n2ccc(=O)n(COC(=O)[C@@H](N)C(C)C)c2=O)[C@H](OC(=O)C(C)C)[C@@H]1OC(=O)C(C)C.Cl : 11700

// below: AUC(0-t) requested for another compound
response.value for CC(C)C(=O)OC[C@@]1(F)O[C@@H](n2ccc(=O)n(COC(=O)[C@@H]3CCCN3)c2=O)[C@H](OC(=O)C(C)C)[C@@H]1OC(=O)C(C)C.Cl (field: AUC(0-t)) = 7590

---

Test: Cmax in fasted Cynomolgus monkey at 5 mg/kg, po by LC-MS/MS analysis
Assay type: ADME, organism-based, Macaca fascicularis
Conditions: in vivo
measurement_label: Cmax (ng/mL)
Respond with the bare value in ng/mL.

Memo: O=c1ccn([C@@H]2O[C@](F)(CO)[C@@H](O)[C@H]2O)c(=O)[nH]1 , reported Cmax: 2850

---

Experiment: Stability of compound at pH 6.8 assessed as change in purity at 1 mg/ml incubated for 4 hrs by HPLC analysis
Format: physicochemical
Details: buffer, pH 6.8, 4 h
Entries and their measured Activity follow.
Numeric only. Scale: %

In the examples that follow, each entry is paired with its recorded Activity.
Briefly, Activity measured for CC(C)C(=O)O[C@H]1[C@H](n2ccc(=O)n(COC(=O)c3cccnc3)c2=O)O[C@](F)(COC(=O)c2cccnc2)[C@H]1OC(=O)C(C)C : -3.4

The reported value for CCC(=O)OC[C@@]1(F)O[C@@H](n2ccc(=O)n(COC(=O)c3cccnc3)c2=O)[C@H](OC(=O)CC)[C@@H]1OC(=O)CC in terms of Activity is -1.9

Form field Activity, entry O=c1ccn([C@@H]2O[C@](F)(CO)[C@@H](O)[C@H]2O)c(=O)[nH]1 : -18.1

New cases:
Given item CC(C)C(=O)OC[C@@]1(F)O[C@@H](n2ccc(=O)n(COC(=O)c3cccnc3)c2=O)[C@@H]2OC(=O)O[C@@H]21 , the value recorded as its Activity is -45

---

Assay: Oral bioavailability in fasted Cynomolgus monkey administered orally by LC-MS/MS analysis
Type: ADME, organism-based, Macaca fascicularis
Conditions: in vivo
measurement_label: bioavailability (%)
Write the value in % as a bare number.

Consider CC(C)C(=O)OC[C@@]1(F)O[C@@H](n2ccc(=O)n(COC(=O)[C@@H]3CCCN3C)c2=O)[C@H](OC(=O)C(C)C)[C@@H]1OC(=O)C(C)C.Cl . Its measured bioavailability is 91

GET /value?item= CC(C)C(=O)OC[C@@]1(F)O[C@@H](n2ccc(=O)n(COC(=O)c3cccnc3)c2=O)[C@H](OC(=O)C(C)C)[C@@H]1OC(=O)C(C)C &field=bioavailability returns 75.2

Memo: CC(=O)O[C@H]1[C@H](n2ccc(=O)n(COC(=O)c3cccnc3)c2=O)O[C@](F)(COC(=O)C(C)C)[C@H]1OC(C)=O , reported bioavailability: 86.4

The compound listed as CC(=O)OC[C@@]1(F)O[C@@H](n2ccc(=O)n(COC(=O)c3cccnc3)c2=O)[C@H](OC(C)=O)[C@@H]1OC(C)=O has a reported bioavailability of 100

Sure, the documented bioavailability for CC(C)C(=O)O[C@H]1[C@H](n2ccc(=O)n(COC(=O)c3cccnc3)c2=O)O[C@](F)(COC(=O)c2cccnc2)[C@H]1OC(=O)C(C)C is 102

API: the following record is the query input.
Record summary for CC(C)C(=O)OCn1c(=O)ccn([C@@H]2O[C@](F)(COC(=O)C(C)C)[C@@H](O)[C@H]2O)c1=O : reported bioavailability = 66.2

Data provenance: ChEMBL document CHEMBL6177980
